Numbers sourced from PubChem BioAssay (NCI).

System: MDA-MB-435
Hi! Could you answer with just one of these? label 1 for active, label 0 for inactive

Reference set (10 entries):
{"columns": ["Molecule", "Assigned class"],
 "data": [
  ["c1ccc2c3c([nH]c2c1)C(c1ccc(C2NCCc4c2[nH]c2ccccc42)cc1)NCC3 (stereo not given)", "label 1"],
  ["O=C(CN1C(=O)S/C(=C\\C(Cl)=C\\c2ccccc2)C1=O)NC1C=CS(=O)(=O)C1 (stereo not given)", "label 0"],
  ["CC[n+]1c(/C=C/C=C2\\N(C)c3ccccc3C2(C)C)sc2ccccc21", "label 0"],
  ["COc1cc2c3c(n(C)c(=O)c2cc1OC)-c1ccc(C#N)cc1C3=O", "label 0"],
  ["Cc1cc(Cl)nc(N(CCCNc2ccnc3cc(Cl)ccc23)Cc2ccco2)n1", "label 0"],
  ["Cn1cc(C2=C(c3cn(CCCCCSC(=N)N)c4ccccc34)C(=O)NC2=O)c2ccccc21", "label 0"],
  ["COC(=O)[C@H]1CCCN1C(=O)[C@H]1CCCN1C(=O)[C@H](Cc1c[nH]c2ccccc12)NC(=S)Nc1cc(C(F)(F)F)cc(C(F)(F)F)c1", "label 0"],
  ["COc1cccc(/C=C2\\COc3ccc(-c4ccccc4)cc3C2=O)c1", "label 0"],
  ["O=C1NC(=NCCCc2ccccc2)S/C1=C\\c1ccc2ncccc2c1", "label 0"],
  ["CC(=O)c1c(C)[nH]c(-c2nc3ccc(N4CCN(C)CC4)cc3[nH]2)c1-c1ccccc1", "label 0"]
]}

Now for a further molecule.
Called result for COc1ccc(N=N/C(C(=O)C(F)(F)F)=C(\O)c2ccc(Cl)cc2)cc1
label 0

---

Test system: CCRF-CEM leukemia
Experiment: NCI tumour cell line growth inhibition, 48 h; in the data active = GI50 below about 0.43 µM; inactive = the rest
Hi! Could you answer with just one of these? Y (active), N (inactive)

Reference set (5 entries):
{"columns": ["Compound", "Measurement target", "Assigned class"],
 "data": [
  ["CC[C@H](C)[C@H](NC(=O)CN(C)C)C(=O)N(C)[C@H](C[C@@H](OC(C)=O)c1nc(C(=O)NC23CC(C(=O)OC)(C2)C3)cs1)C(C)C", "CCRF-CEM leukemia", "Y"],
  ["N#CC1c2ccccc2C=CN1C(=O)N(c1ccccc1)c1ccccc1 (centres undefined)", "CCRF-CEM leukemia", "N"],
  ["COc1nnc2ccc(N3CCC(c4ccc(OCCN5CCN(C)C(=O)[C@H]5C)cc4)CC3)nn12", "CCRF-CEM leukemia", "Y"],
  ["CCOC(=O)c1cnc2c(C)cccc2c1Nc1ccc(C(C)=O)cc1", "CCRF-CEM leukemia", "N"],
  ["COc1cc2nc3cc([N+](=O)[O-])ccc3c(NCCNCC(C)(C)O)c2cc1OC", "CCRF-CEM leukemia", "N"]
]}

Called result for COC(=O)c1ccc(NC(=O)Oc2ccc(N(CCCl)CCCl)cc2)cc1
N

Called result for COc1ccc(/C=C/C(=O)c2sc(-n3nc(-c4ccccc4)cc3-c3ccccc3)nc2C)cc1
N

Called result for COC(=O)[C@H]1CCCN1C(=O)[C@H]1CCCN1C(=O)[C@H](Cc1c[nH]c2ccccc12)NC(=S)Nc1cc(C(F)(F)F)cc(C(F)(F)F)c1
N

Called result for CCCCCCC[CH2][Sn]1([CH2]CCCCCCC)[O]C(=O)c2cccnc2[O]1
N

---

Test system: SN12C renal
Assay: NCI tumour cell line growth inhibition, 48 h
The following molecules are shown together with reported TGI values.

Consider the following illustrative entries.
{"columns": ["Item smiles", "TGI"],
 "data": [
  ["Cc1ccc(NC(=O)C(=O)CC(=O)c2sc(Nc3c(C)cccc3C)nc2C)cc1C", "> 100 µM"],
  ["CN(C)CCNC(=O)c1cccc2c1Oc1c(cccc1[N+](=O)[O-])O2", "3.72 µM"],
  ["CN1CCN(CCCOc2cccc3nc(Nc4ccc(Cl)c(C(F)(F)F)c4)ccc23)CC1", "3.38 µM"],
  ["NNC(=O)c1cc(=O)[nH][nH]1", "> 100 µM"],
  ["COc1ccc(N(C)c2nc(N)nc3sc4c(c23)CCCC4)cc1", "14 µM"],
  ["O=P(O)(O)C1(P(=O)(O)O)CC1", "> 100 µM"],
  ["CC[C@H](C)[C@H](NC(=O)CN(C)C)C(=O)N(C)[C@H](C[C@@H](OC(C)=O)c1nc(C(=O)NC23CC(C(=O)OC)(C2)C3)cs1)C(C)C", "> 25 µM"],
  ["Cc1ccccc1NC(=O)Cc1csc2[n+]1C(=O)/C(=C/c1ccc([N+](=O)[O-])cc1)S2", "> 100 µM"]
]}

# next molecule below
Which value of TGI has been reported for COc1cc(N(Cc2ccc3oc(=O)c(-c4ccccc4)nc3c2)Cc2ccc3oc(=O)c(-c4ccccc4)nc3c2)cc(OC)c1OC in the records?
> 10 µM

---

The following compounds are shown together with reported TGI values.
Test system: A549 NSCLC
Assay: NCI tumour cell line growth inhibition, 48 h

Consider the following illustrative entries.
{"columns": ["Compound", "Measured result"],
 "data": [
  ["CN(C)c1cccc(NC2=NCCO2)c1", "> 100 µM"],
  ["O=P(O)(O)C1(P(=O)(O)O)CC1", "> 100 µM"],
  ["CCOC(=O)N(c1ccccc1)N(CC)C(=O)/C(C)=N/Nc1ccc([N+](=O)[O-])cc1", "33.9 µM"],
  ["Cc1cc(Cl)nc(N(CCCNc2ccnc3cc(Cl)ccc23)Cc2ccco2)n1", "13.9 µM"],
  ["CCCC(CCN)(CCN)[N+](=O)[O-]", "> 100 µM"]
]}

Which value of TGI has been reported for COc1ccc(N=N/C(C(=O)C(F)(F)F)=C(\O)c2ccc(Cl)cc2)cc1 in the records?
16.8 µM

Which value of TGI has been reported for C/C(=C\c1csc(C)n1)[C@@H]1C[C@@H]2O[C@@H]2CCC[C@H](C)[C@H](O)[C@@H](C)C(=O)C(C)(C)[C@@H](O)CC(=O)O1 in the records?
> 100 µM

Which value of TGI has been reported for O=C(Nc1ccccc1)c1cc(S(=O)(=O)N2CCNNC2=O)c(S)cc1Cl in the records?
> 100 µM

Which value of TGI has been reported for N=c1c2c(=N)n3c(nc2nc2n1-c1ccccc1Sc1ccccc1-2)sc1cc(Cl)ccc13 in the records?
> 100 µM

---

System: DU-145 prostate
Test: NCI tumour cell line growth inhibition, 48 h
Measured property: GI50

Consider the following illustrative entries.
{"columns": ["Molecule", "Measurement target", "Measured result"],
 "data": [
  ["COc1cc2c3c(n(C)c(=O)c2cc1OC)-c1ccc(C#N)cc1C3=O", "DU-145 prostate", "> 100 µM"],
  ["C#CCOc1ccc2ncnc(Nc3ccc(NC(=O)C=C)cc3)c2c1", "DU-145 prostate", "25.4 µM"]
]}

Tell me reported GI50 for O=C1Cc2cc(C(=O)NC3C[C@H]4CC[C@@H](C3)N4S(=O)(=O)CC3CCN(CCCC(F)(F)F)CC3)c(Cl)cc2N1 (stereo not given in full) , tested with DU-145 prostate.
> 100 µM

Tell me reported GI50 for O=C(COc1cccc(/C=C2\CSc3ccccc3C2=O)c1)Nc1nccs1 , tested with DU-145 prostate.
1.94 µM

---

Test system: K-562 leukemia
Test: NCI tumour cell line growth inhibition, 48 h
Measured property: TGI

Consider the following illustrative entries.
{"columns": ["Compound", "Measurement target", "TGI"],
 "data": [
  ["O=C(CCc1ccccc1)On1c(-c2ccccc2)nc2ccccc2c1=S", "K-562 leukemia", "> 100 µM"],
  ["Fc1cccc(F)c1C1SCc2nc3ccc(Cl)cc3n21 (centres undefined)", "K-562 leukemia", "> 100 µM"],
  ["CCOc1ccc(NC(=O)CC2C(=O)Nc3ccccc3S2(=O)=O)cc1 (centres undefined)", "K-562 leukemia", "> 100 µM"],
  ["CC1=C(Nc2ccc(N3CCN(C)CC3)cc2)C(=O)c2cncnc2C1=O", "K-562 leukemia", "> 100 µM"]
]}

Which value of TGI has been reported for NS(=O)(=O)OCCCCCCCOS(N)(=O)=O in the records?
2110 µM

Which value of TGI has been reported for O=C1c2ccccc2C(=O)c2c(OCCOCCO)cccc21 in the records?
> 100 µM

---

The following molecules are shown together with reported TGI values.
Tested on: SK-MEL-2 melanoma
Experiment: NCI tumour cell line growth inhibition, 48 h

Consider the following illustrative entries.
{"columns": ["Molecule", "TGI"],
 "data": [
  ["CCN(CC)c1ccc(/C=C/C=C2C(=O)NC(=S)NC2=O)cc1", "> 100 µM"],
  ["COc1cc(N(Cc2ccc3oc(=O)c(-c4ccccc4)nc3c2)Cc2ccc3oc(=O)c(-c4ccccc4)nc3c2)cc(OC)c1OC", "> 10 µM"],
  ["CN(c1ccccc1)c1c(Cl)c(=O)oc2c1ccc1occc12", "> 100 µM"],
  ["Nc1ncnc2c1ncn2C1CC(OCc2ccccc2[N+](=O)[O-])C(CO)O1 (stereo not given)", "> 50 µM"],
  ["CN(Cc1cnc2nc(N)nc(N)c2n1)c1ccc(C(=O)NC(CCC(=O)O)C(=O)O)cc1Br (stereo not given)", "> 100 µM"]
]}

Tell me reported TGI for Fc1cccc(F)c1C1SCc2nc3ccc(Cl)cc3n21 (stereo not given) , tested with SK-MEL-2 melanoma.
> 100 µM
